Target: ADAMTS4 (Homo sapiens, UniProt O75173)
Sequence (O75173 213-685 limits assumed): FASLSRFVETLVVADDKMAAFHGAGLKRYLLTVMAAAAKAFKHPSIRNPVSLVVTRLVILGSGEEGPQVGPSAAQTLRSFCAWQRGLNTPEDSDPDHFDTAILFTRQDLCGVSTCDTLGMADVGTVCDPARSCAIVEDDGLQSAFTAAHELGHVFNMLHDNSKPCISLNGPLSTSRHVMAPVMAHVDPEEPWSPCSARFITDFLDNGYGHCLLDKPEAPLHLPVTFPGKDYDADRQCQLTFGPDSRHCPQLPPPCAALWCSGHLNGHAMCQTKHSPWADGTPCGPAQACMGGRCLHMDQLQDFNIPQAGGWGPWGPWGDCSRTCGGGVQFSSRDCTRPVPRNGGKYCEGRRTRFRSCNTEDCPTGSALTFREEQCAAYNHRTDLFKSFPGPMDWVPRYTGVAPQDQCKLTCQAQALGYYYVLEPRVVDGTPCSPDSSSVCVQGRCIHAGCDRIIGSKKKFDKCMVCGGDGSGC
reported.property: pIC50
pIC50 is a log-scale quantity: -log10 of the concentration expressed in molar.

{"compound": "CC(C)C1(CNC(=O)c2cnn(-c3ccc(F)c(F)c3)n2)NC(=O)NC1=O (single isomer, unassigned; ent-2) [Example 123]", "target": "ADAMTS4 (Homo sapiens, UniProt O75173)", "readout.number": 6.04}
{"compound": "Cc1ccc(-n2ncc(C(=O)NC[C@@]3(C4CC4)NC(=O)NC3=O)n2)cc1 [Example 13]", "target": "ADAMTS4 (Homo sapiens, UniProt O75173)", "readout.number": 6.02}

Consider the additional compound presented here.
Exam item: What does the record list as pIC50 for O=C1NC(=O)C(CNC(=O)c2cnn(-c3ccc(F)cc3)n2)(C2CCOCC2)N1 (single isomer, unassigned; ent-2) [Example 81] ?
Marked response: 5.82
